Test system: B16-F10 melanoma cells
assay-info: cells
Assay type: cell-based
assay-setup: 10 μM
Simple rule here: Average Melanoma growth (from the previous chart) less than 90% is yes (1), otherwise no (0).

Challenge: I'd appreciate it if you could check whether COc1cc(O)cc(/C=C/Sc2ccccc2)c1 [CL4] has Average Melanoma growth (from the previous chart) smaller than 90%.
Response given: no (0)

Challenge: What would you report for N#CC(=C(N)Sc1ccccc1N)C(C#N)=C(N)Sc1ccccc1N [MEK-I, reference compound] ?
Response given: yes (1)

Challenge: Likewise for COc1cc(O)cc(/C=C/c2cc3ccccc3s2)c1 [SK0392] ?
Response given: no (0)

Challenge: Moving on to the next molecule: COc1cc(O)cc(/C=C/Oc2cccc(C)c2)c1 [Analog A9]
Response given: yes (1)
